- method_description: method code SF-AS, from DOI: 10.1002/qsar.19890080102
- experimental_setup: pH 1.5
quantity_name: logD

# annotated cases, reported logD shown
[[record]]
structure_smiles_string = "NS(=O)(=O)c1cccc(S(N)(=O)=O)c1"
quantity_name = "logD"
reported_result = -0.5

[[record]]
structure_smiles_string = "NS(=O)(=O)c1cccc(Br)c1"
quantity_name = "logD"
reported_result = 1.35

[[record]]
structure_smiles_string = "CCCCOc1ccc(S(N)(=O)=O)cc1"
quantity_name = "logD"
reported_result = 2.05

[[record]]
structure_smiles_string = "CC(C)c1cccc(S(N)(=O)=O)c1"
quantity_name = "logD"
reported_result = 1.66

[[record]]
structure_smiles_string = "NS(=O)(=O)c1cccc(Cl)c1"
quantity_name = "logD"
reported_result = 1.16


[A] CS(=O)(=O)Nc1ccc(S(N)(=O)=O)cc1
[B] NS(=O)(=O)c1ccc(I)cc1
Param metric = logD; output whichever of A , B has the minimum value. Answer with the label corresponding to your selection.
A
